The entries below come with measured IC50 values attached.
# TARGET: Cocaine esterase (Homo sapiens)
# Sequence (O00748 whole entry): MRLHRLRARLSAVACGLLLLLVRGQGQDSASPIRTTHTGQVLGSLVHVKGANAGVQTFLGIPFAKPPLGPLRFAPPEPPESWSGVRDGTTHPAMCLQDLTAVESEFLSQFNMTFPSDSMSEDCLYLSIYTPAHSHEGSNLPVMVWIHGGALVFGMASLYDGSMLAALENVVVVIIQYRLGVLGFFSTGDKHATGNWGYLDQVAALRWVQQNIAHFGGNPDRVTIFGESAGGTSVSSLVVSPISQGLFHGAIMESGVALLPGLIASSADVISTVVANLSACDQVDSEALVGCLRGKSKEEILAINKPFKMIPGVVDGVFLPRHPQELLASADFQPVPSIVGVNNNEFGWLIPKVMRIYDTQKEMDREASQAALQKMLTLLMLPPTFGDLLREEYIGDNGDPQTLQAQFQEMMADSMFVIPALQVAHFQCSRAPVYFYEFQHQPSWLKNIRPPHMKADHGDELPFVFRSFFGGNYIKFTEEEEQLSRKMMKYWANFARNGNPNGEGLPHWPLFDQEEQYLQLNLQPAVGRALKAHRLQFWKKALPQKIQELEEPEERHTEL
# ASSAY: Inhibition of human recombinant CES2 activity assessed as fluorescence of the AP product using Benz-AP as substrate

Answered examples (5):
> print(dat)
                                   compound  measured
1  COc1cc2c(cc1OC)C(C)N(C(=O)c1cc3c(s1)-c1ccccc1S(=O)(=O)C3)CC2 (stereo unspecified)   < 10 nM
2  O=C(CSc1cn(CC(=O)N2CCCC2)c2ccccc12)Nc1ccc(F)cc1F   < 10 nM
3   Cc1ccc(CN2Cc3cc4ccc(C)c(C)c4nc3OC2=O)o1     18 nM
4  CCOc1ccc2ncc(S(=O)(=O)c3ccc(OC)cc3)c(N3CCC4(CC3)OCCO4)c2c1     66 nM
5  CC(C)CN1C(=O)CCc2cc(NC(=O)Cc3cccc(F)c3)ccc21    177 nM

Please examine the following record next.
Query block: Tell me its IC50 given Cc1ccc(Nc2nc(C(=O)NCc3ccccc3)cc3occc23)cc1 as the entry.
Result block: < 10 nM

###

The entries below come with measured activity at 40 µM values attached.
# TARGET: CES2 (cocaine esterase) (Homo sapiens)
# ASSAY: Inhibition of human recombinant CES2 activity assessed as fluorescence of the AP product using Benz-AP as substrate by measuring residual activity at 40 uM relative to control
# ASSAY_SETUP: recombinant CES2, probe Benz-AP
# number only, unit % dropped from output

Answered examples (6):
> print(dat)
                                   compound  experimental.endpoint  measured
1   Cc1ccc(CN2Cc3cc4ccc(C)c(C)c4nc3OC2=O)o1      activity at 40 µM       0.2
2  Cc1ccc(Nc2nc(C(=O)NCc3ccccc3)cc3occc23)cc1      activity at 40 µM         3
3  CCn1c(=O)c2sc(N3CCCC3)nc2n(CC(=O)Nc2cccc(Cl)c2C)c1=O      activity at 40 µM        37
4  O=C(CSc1cn(CC(=O)N2CCCC2)c2ccccc12)Nc1ccc(F)cc1F      activity at 40 µM       0.9
5  CCOc1ccc2ncc(S(=O)(=O)c3ccc(OC)cc3)c(N3CCC4(CC3)OCCO4)c2c1      activity at 40 µM       1.3
6  COc1cc2c(cc1OC)C(C)N(C(=O)c1cc3c(s1)-c1ccccc1S(=O)(=O)C3)CC2 (configuration not stated)      activity at 40 µM        13

Please examine the following record next.
Query block: Tell me its activity at 40 µM given CC(C)CN1C(=O)CCc2cc(NC(=O)Cc3cccc(F)c3)ccc21 as the entry.
Result block: -0.17
